assay: soluble fraction after stress (log2 fold change); higher = more stays soluble; pooled small domains, quantitative proteomics; details: stress: 75 degC;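 also: 20 min heating vs room temperature control held 20 min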
measured-attribute: soluble fraction (log2)
Answer with the value's number alone.

Sample answers from the record:
1. HMNGIFEYSDAKKVPSLVEIENAYRRARVNGAEKFAVIINGEYFGYNPQKRGIYKLNDGEYQIL : -0.428
2. HMLGDAWSMLILRDAHSGFSRFDQFRKSLGIAPTMLTKRLSVLVDEGLLEKRQYSEHPPREEYVLTQAGQD : -0.0775
3. HMKLHPRDQERTRAISARGERLYAVTVGDLRRRIGEMLEWFGRQIESQEPMRVAKAARRITDFFDQVEAFT : -2.5

Exam item: // lookup soluble fraction (log2) for HMLDLPVRTINGRQYYYYEVRNRETVYGLSKRLGVTREEIVRYNPSMADGLKRGAILYFPVDEFSDRI
Marked response: -2.84

Exam item: // lookup soluble fraction (log2) for HMIEGETPEQTMERVSKDPEIVQILQDPVMQGILAQARENPAALQDHMKNPEVYKKINMLIAAGVIRT
Marked response: 0.278

Exam item: // lookup soluble fraction (log2) for HMSSLEQVYPNPVSSILKLNSFIKNYKILNATGHEVLKGSGNTINVGKLPSGSYFLITSENYSIKFIK
Marked response: -1.08

Exam item: // lookup soluble fraction (log2) for HMQKVPDAFKAEQVQTLITRLGVSRAELARTLDVSLSTVNKWASGAVEPKGSALVLLKVLWMHGFKAL
Marked response: -2.85

Exam item: // lookup soluble fraction (log2) for HMINPASEKQLSFANSLIAKKEGGTETLNHYLHNRKVSSLEELDRKDVSEIINALKFAKEVT
Marked response: 0.641

----------
test: soluble fraction after stress (log2 fold change); higher = more stays soluble; pooled small domains, quantitative proteomics; conditions: stress: 75 degC
Label TRUE when soluble fraction (log2) is at or above -0.3; anything below gets FALSE.

1) HMVEDIVLTDAQIEFVKQQAKNGLSAFQISEMIWPEMSVKRFSKQHVAVLDFLREYEPAYVHDSE : TRUE
2) HMTIGKIVNIIEGSYANVRSAPDQNSEPIGRAYPGDAFLVDPLGSSGDWVKVTYEGQSGFIFQAYISV : FALSE
3) HMKIPYGELIKLLNAAAPKLQDAQGWMDMEAAGQFIGSRWSYLDYGFKDWPDSFKTVHGLEIQGQRMRLA : FALSE
4) HMIGEKLKEIREKTGMNKKEFAQYLGLKYTTYNNYETEAREPASDFLILISTKFDVSIDYLLGLQ : FALSE
5) HMKQISNTDELESMAKNIIQENPDQVSKFKNGNEKLFGWFVGQMMKSTGGTANPKVVNEILKNLLN : TRUE

Exam item: Is the recorded value of soluble fraction (log2) equal to or greater than -0.3 for this sequence? HMTIDNPESQKIMDMVPFFFQSRNYDEAIEALTYVIEQEPQFSEAYNKRATFYFMMGDLENSMKDIEITLA
Marked response: TRUE

Exam item: Is the recorded value of soluble fraction (log2) equal to or greater than -0.3 for this sequence? HMKIVPEPGTVLIREYQEERHEVTVTLDGAFDYKGTLYSSLSEIARLITGTRWSGPVFFGLRS
Marked response: FALSE

Exam item: Is the recorded value of soluble fraction (log2) equal to or greater than -0.3 for this sequence? HMSDVVFRINANGLNVSGLANGERVSVYDTTGKLVTTAVSTQDNGTLNLPLKQSGGIYIARTQSGVSFKFT
Marked response: FALSE
